Where these numbers come from: patent US20250353819A1

- protocol_details: Partition coefficient (Log D) by gradient HPLC
- Type: physicochemical
- cond: pH 7.4, chromatographic estimate; read-out: gLogD7.4
measured_quantity: chromatographic logD

For orientation, consider the following solved cases.
[2H]C([2H])([2H])C1(C([2H])([2H])[2H])NC(=O)N(c2ccc(F)c(C(F)(F)F)c2)C1=O [IB]
2.7
CC1(C(F)(F)F)NC(=O)N(c2ccc(F)c(C(F)(F)F)c2)C1=O (stereo not shown) [IA]
3.5
CC1(C)NC(=O)N(c2ccc(F)c(C(C)(F)F)c2)C1=O [Compound IC]
2.6

// moving on: another record for chromatographic logD
Data request: Any idea what its chromatographic logD is? The compound is [2H]C([2H])([2H])C1(C([2H])([2H])[2H])NC(=O)N(c2ccc(F)c(C(C)(F)F)c2)C1=O [Compound IE]
Data returned: 2.5
